target: Kinesin-like protein KIF11 (Homo sapiens, UniProt P52732); experiment: Inhibition EG5 (unknown origin)
Sequence (P52732 whole entry): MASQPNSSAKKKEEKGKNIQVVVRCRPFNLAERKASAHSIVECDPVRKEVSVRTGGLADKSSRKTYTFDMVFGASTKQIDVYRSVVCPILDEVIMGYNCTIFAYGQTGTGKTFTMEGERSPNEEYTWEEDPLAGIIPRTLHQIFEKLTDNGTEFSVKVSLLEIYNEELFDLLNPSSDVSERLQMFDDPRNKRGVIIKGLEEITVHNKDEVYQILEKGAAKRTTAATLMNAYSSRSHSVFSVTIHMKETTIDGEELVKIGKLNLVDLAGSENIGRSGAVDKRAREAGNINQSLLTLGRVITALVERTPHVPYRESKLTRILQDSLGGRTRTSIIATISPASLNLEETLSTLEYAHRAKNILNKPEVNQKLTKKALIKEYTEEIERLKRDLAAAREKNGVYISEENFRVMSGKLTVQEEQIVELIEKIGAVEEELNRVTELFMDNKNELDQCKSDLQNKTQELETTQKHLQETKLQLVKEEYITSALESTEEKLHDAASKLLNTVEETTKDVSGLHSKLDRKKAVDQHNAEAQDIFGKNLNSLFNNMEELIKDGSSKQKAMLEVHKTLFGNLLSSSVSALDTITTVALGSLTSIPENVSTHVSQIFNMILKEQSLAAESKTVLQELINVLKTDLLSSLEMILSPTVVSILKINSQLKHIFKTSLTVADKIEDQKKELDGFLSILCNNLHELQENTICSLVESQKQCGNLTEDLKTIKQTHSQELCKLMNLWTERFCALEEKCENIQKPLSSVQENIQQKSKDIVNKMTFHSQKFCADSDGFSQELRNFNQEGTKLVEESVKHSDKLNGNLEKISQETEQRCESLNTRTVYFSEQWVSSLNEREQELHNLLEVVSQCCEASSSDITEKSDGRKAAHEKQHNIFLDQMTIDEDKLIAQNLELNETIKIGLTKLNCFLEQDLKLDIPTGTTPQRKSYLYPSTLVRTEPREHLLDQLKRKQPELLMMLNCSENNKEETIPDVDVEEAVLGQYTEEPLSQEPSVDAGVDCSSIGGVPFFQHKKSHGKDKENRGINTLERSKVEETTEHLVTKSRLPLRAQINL
endpoint_name: pIC50
Numbers only, as −log10 of the molar value.

Previously resolved entries follow.
Qu. Need pIC50 of CCNCCS(=O)(=O)NC[C@@]1(c2ccccc2)SC(NC(=O)C(C)(C)C)=NN1C(=O)C(C)(C)C [LITRONESIB] , thanks.
Ans. 8.15

Qu. Need pIC50 of `CC(=O)C1=NN(c2cc(C)ccc2F)C[C@]1(CCCN(C)C)c1ccccc1` , thanks.
Ans. 9.70

---
Qu. Need pIC50 of CC1=C(C(=O)OC(C)C)C(c2ccc(Cl)cc2)n2c(s/c(=C\c3ccc(OCC(=O)O)cc3)c2=O)=N1 (stereo not drawn) , thanks.
Ans. 5.34

---

biological target: Kinesin-like protein KIF11 (Homo sapiens, UniProt P52732); assay: Inhibition of MT-stimulated EG5 ATPase activity (unknown origin) by pyruvate kinase/lactate dehydrogenase enzyme coupled photometric assay; details: read-out: IC50
pIC50: −log10 of the molar value.
endpoint_name: pIC50

Qu. Need pIC50 of CC(=O)N1N=C(NC2=NC(=O)/C(=C/C=C/c3ccccc3)S2)SC1(C)c1ccccc1 (centres undefined) , thanks.
Ans. 3.61 to 4.12

Below is a list of molecules. For each, state its recorded pIC50.
1. CC(=O)N1N=C(NC2=NC(=O)/C(=C/c3ccco3)S2)SC1(C)c1ccccc1 (centres undefined)
2. CC(=O)N1N=C(NC2=NC(=O)/C(=C/c3ccccc3F)S2)SC1(C)c1ccccc1 (centres undefined)
3. COc1cccc(/C=C2\SC(NC3=NN(C(C)=O)C(C)(c4ccccc4)S3)=NC2=O)c1 (centres undefined)

Ans.
3.48 to 3.92
3.88 to 4.15
4.29

---

molecular target: Kinesin-like protein KIF11 (Homo sapiens); test: Inhibition of MT-stimulated EG5 ATPase activity (unknown origin) by pyruvate kinase/lactate dehydrogenase enzyme coupled photometric assay; conditions: read-out: IC50
endpoint_name: IC50

Qu. Need IC50 of CC(=O)N1N=C(NC2=NC(=O)/C(=C/c3ccc(N(C)C)cc3)S2)SC1(C)c1ccccc1 (centres undefined) , thanks.
Ans. 90 to 252 µM

Qu. Need IC50 of COc1ccc(/C=C/C=C2\SC(NC3=NN(C(C)=O)C(C)(c4ccccc4)S3)=NC2=O)cc1 (centres undefined) , thanks.
Ans. 90 to 414 µM

Qu. Need IC50 of CC(=O)N1N=C(NC2=NC(=O)/C(=C/c3ccc([N+](=O)[O-])cc3)S2)SC1(C)c1ccccc1 (centres undefined) , thanks.
Ans. 20.2 µM

Then there is this molecule:
Qu. Need IC50 of COc1ccc(/C=C2\SC(NC3=NN(C(C)=O)C(C)(c4ccccc4)S3)=NC2=O)cc1OC (centres undefined) , thanks.
Ans. 60 to 112 µM
